SYSTEM_UNDER_TEST: FSHR (Homo sapiens, UniProt P23945)
Construct: expressed in transfected cells; host or cells: CHO (Cho-FSHR-LUC-1-1-43)
Sequence (P23945 18-695): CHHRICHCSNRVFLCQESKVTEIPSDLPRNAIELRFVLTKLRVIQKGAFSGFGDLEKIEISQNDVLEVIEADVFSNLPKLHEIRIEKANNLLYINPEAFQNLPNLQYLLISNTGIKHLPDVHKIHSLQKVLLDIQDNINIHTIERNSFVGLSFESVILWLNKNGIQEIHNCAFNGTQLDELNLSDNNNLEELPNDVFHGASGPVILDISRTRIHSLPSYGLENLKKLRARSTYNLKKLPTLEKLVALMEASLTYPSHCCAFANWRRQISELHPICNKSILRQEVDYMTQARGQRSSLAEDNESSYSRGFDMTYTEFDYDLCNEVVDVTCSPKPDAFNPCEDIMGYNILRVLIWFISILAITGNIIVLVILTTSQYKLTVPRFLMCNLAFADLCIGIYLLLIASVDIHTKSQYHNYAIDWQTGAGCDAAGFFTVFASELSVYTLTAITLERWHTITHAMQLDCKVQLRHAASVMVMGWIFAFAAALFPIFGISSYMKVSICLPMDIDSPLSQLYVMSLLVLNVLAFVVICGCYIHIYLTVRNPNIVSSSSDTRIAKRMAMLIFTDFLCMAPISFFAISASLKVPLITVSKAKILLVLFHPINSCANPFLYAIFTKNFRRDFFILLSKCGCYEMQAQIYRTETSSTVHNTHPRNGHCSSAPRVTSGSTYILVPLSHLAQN
Sequence (P01215 25-116 partner): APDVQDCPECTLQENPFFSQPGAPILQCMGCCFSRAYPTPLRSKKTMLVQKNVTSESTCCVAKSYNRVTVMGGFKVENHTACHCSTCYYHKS
Sequence (P01225 19-129 partner): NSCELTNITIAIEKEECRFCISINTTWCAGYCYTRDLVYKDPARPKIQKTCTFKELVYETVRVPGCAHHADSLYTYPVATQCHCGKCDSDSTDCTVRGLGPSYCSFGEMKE
METHOD: EC50 of cyclic AMP production in CHO FSHR cells + EC20 FSH (Assay A)
Type: cell-based
TEST_PARAMETERS: CHO FSHR cells + EC20 FSH; Table 2; read-out: Assay A EC50 of cyclic AMP production
OBSERVED_PROPERTY: EC50

• Cc1ccccc1N1CCN(c2ccc(C(=O)NCCCN3CCCC3=O)cc2NC(=O)c2nccn2C)CC1 = > 10 µM
• Cc1ccccc1N1CCN(c2ccc(C(=O)NCCCC(=O)NC3CCC3)cc2NC(=O)c2coc(C3CC3)n2)CC1 = 0.1 to 1 µM

// fetch EC50; item: CCC(=O)NCCCNC(=O)c1ccc(N2CCN(c3ccccc3C)CC2)c(NC(=O)c2coc(C3CC3)n2)c1 ; system: FSHR (Homo sapiens, UniProt P23945)
< 0.1 µM

Enter measured EC50, system FSHR (Homo sapiens, UniProt P23945), for the molecule shown: Cc1cccc(C)c1N1CCN(c2ccc(C(=O)NCCCN3CCCC3=O)cc2NC(=O)c2coc(C3CC3)n2)CC1
1 to 10 µM

Find the measured EC50 of Cc1ccccc1N1CCN(c2ccc(C(=O)Nc3ccnn3CC3CCOC3)cc2NC(=O)c2coc(C3CC3)n2)CC1 (stereo not shown) with FSHR (Homo sapiens, UniProt P23945) as test system.
1 to 10 µM

Write down measured EC50 (FSHR (Homo sapiens, UniProt P23945)) for this molecule. CC(=O)NCCCNC(=O)c1ccc(N2CCN(c3ccccc3C)CC2)c(NC(=O)c2coc(C3CC3)n2)c1
0.1 to 1 µM

Provide FSHR (Homo sapiens, UniProt P23945) EC50 reading for Cc1cncnc1N1CCN(c2ccc(C(=O)NCCCN3CCCC3=O)cc2NC(=O)c2ccco2)CC1 .
> 10 µM

Report value: EC50, system: FSHR (Homo sapiens, UniProt P23945), molecule: CCCNC(=O)NCCCNC(=O)c1ccc(N2CCN(c3ccccc3C)CC2)c(NC(=O)c2coc(C3CC3)n2)c1
0.1 to 1 µM

Specify EC50 for Cc1ccc(C(=O)Nc2cc(C(=O)NCCCc3cn[nH]c3)ccc2N2CCN(c3ccccc3C)CC2)o1 , system FSHR (Homo sapiens, UniProt P23945).
0.1 to 1 µM

State recorded EC50 with FSHR (Homo sapiens, UniProt P23945), entry Cc1ccccc1N1CCN(c2ccc(C(=O)N[C@@H]3C[C@H](CO)[C@@H](O)[C@H]3O)cc2NC(=O)c2coc(C3CC3)n2)CC1 , no comment.
< 0.1 µM

System FSHR (Homo sapiens, UniProt P23945). Read-out EC50. Item CNCc1cccc(CNC(=O)c2ccc(N3CCN(c4ccccc4C)CC3)c(NC(=O)c3ccco3)c2)c1 . Report value.
0.1 to 1 µM

###

Entries and their measured pEC50 follow.
SYSTEM_UNDER_TEST: FSHR (Homo sapiens)
Construct: expressed in transfected cells; host or cells: CHO (Cho-FSHR-LUC-1-1-43)
METHOD: EC50 of cyclic AMP production in CHO FSHR cells + EC20 FSH (Assay A)
Format: cell-based
TEST_PARAMETERS: CHO FSHR cells + EC20 FSH; Table 2; read-out: Assay A EC50 of cyclic AMP production
pEC50: −log10 of the molar value.

- Cc1ccccc1N1CCN(c2ccc(C(=O)NCCc3ccc(CN)cc3)cc2NC(=O)c2coc(C3CC3)n2)CC1: 6.00 to 7.00
- Cc1ccccc1N1CCN(c2ccc(C(=O)NCCCN3CCCC3=O)cc2NC(=O)C2CC2(F)F)CC1 (centres unmarked): 5.00 to 6.00
- Cc1ccccc1N1CCN(c2ccc(C(=O)NCCCN3CCOCC3)cc2NC(=O)c2coc(C3CC3)n2)CC1: 6.00 to 7.00
- Cc1ccccc1N1CCN(c2ccc(C(=O)NCCc3cnc[nH]3)cc2NC(=O)C2CC2)CC1: 5.00 to 6.00
- Cc1cncnc1N1CCN(c2ccc(C(=O)NCCc3cn(C)cn3)cc2NC(=O)c2coc(C3CC3)n2)CC1: 5.00 to 6.00

Consider the compound Cc1ccccc1N1CCN(c2ccc(C(=O)NCCc3cn(C)cn3)cc2NC(=O)c2coc(C3CC3)n2)CC1 . State its measured pEC50.
6.00 to 7.00

Give the value of pEC50 reported for the following: COc1ccc(CNC(=O)c2ccc(N3CCN(c4ccccc4C)CC3)c(NC(=O)c3coc(C4CC4)n3)c2)cc1OC
6.00 to 7.00

###

Catalogue of EC50 readings, one per entry.
SYSTEM_UNDER_TEST: follicle-stimulating hormone (FSH) receptor (Rattus norvegicus, UniProt P20395)
Construct: endogenous in cells; host or cells: rat granulosa cells
Sequence (P20395 18-692): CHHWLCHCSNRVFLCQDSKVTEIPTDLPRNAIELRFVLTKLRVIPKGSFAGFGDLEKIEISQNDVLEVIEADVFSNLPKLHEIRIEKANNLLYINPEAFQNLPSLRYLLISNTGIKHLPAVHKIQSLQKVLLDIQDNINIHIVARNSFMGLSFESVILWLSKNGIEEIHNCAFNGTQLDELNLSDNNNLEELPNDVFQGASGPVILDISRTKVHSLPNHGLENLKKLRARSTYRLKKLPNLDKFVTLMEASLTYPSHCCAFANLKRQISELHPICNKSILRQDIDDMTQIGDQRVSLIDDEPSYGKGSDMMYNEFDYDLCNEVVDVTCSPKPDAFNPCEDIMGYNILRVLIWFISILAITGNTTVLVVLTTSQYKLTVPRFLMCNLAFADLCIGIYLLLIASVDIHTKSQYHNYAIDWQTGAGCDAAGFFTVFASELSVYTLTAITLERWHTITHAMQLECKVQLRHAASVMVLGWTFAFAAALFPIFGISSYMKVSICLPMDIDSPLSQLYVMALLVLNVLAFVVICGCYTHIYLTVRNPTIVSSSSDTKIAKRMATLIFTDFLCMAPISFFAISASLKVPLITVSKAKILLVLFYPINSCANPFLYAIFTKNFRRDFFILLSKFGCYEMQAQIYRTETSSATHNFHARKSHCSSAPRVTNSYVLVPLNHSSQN
METHOD: Rat granulosa EC50 FSH (Assay B)
Assay type: cell-based
TEST_PARAMETERS: rat granulosa cells; Table 1

Sample answers from the record:
* Cc1ccccc1N1CCN(c2ccc(C(=O)NCc3cccc(C(N)=O)c3)cc2NC(=O)c2ccco2)CC1 [Compound 189] | 100 to 1000 nM
* Cc1ccccc1N1CCN(c2ccc(C(=O)NCCc3c[nH]cn3)cc2NC(=O)c2ccco2)CC1 [Compound 15] | 100 to 1000 nM
* Cc1ccccc1N1CCN(c2ccc(C(=O)NCCCN3CCCC3=O)cc2NC(=O)c2ccc(F)cn2)CC1 [Compound 128] | 100 to 1000 nM
* Cc1ccccc1N1CCN(c2ccc(C(=O)N3CCC4(CCOC4)CC3)cc2NC(=O)c2ccco2)CC1 [Compound 224] | 1000 to 10000 nM
* C#Cc1ccc(C(=O)Nc2cc(C(=O)NCCCN3CCCC3=O)ccc2N2CCN(c3ccccc3C)CC2)o1 [Compound 176] | 1000 to 10000 nM

Next molecule, please.
Provide EC50 value for the following molecule: Cc1ccccc1N1CCN(c2ccc(C(=O)NCCCN3CCCC3=O)cc2NC(=O)c2coc(Cl)n2)CC1 [Compound 207]
100 to 1000 nM

###

SYSTEM_UNDER_TEST: FSHR (Homo sapiens, UniProt P23945)
Construct: expressed in transfected cells; host or cells: CHO (Cho-FSHR-LUC-1-1-43)
METHOD: EC50 of cyclic AMP production in CHO FSHR cells + EC20 FSH (Assay A)
Assay type: cell-based
TEST_PARAMETERS: CHO FSHR cells + EC20 FSH; Table 1; read-out: Assay A EC50 of cyclic AMP production
OBSERVED_PROPERTY: EC50

// known answers, use as guide
• Cc1ccccc1N1CCN(c2ccc(C(=O)NCCCN3CCCC3=O)cc2NC(=O)c2ccc(Cl)o2)CC1 = 100 to 1000 nM
• Cc1ccccc1N1CCN(c2ccc(C(=O)NC3CCN(S(C)(=O)=O)CC3)cc2NC(=O)c2ccco2)CC1 = 100 to 1000 nM
• Cc1ccccc1N1CCN(c2ccc(C(=O)NCCCN3CCCC3=O)cc2NC(=O)c2ccc(C(N)=O)o2)CC1 = > 10000 nM
• Cc1ccccc1N1CCN(c2ccc(C(=O)NCCCN3CCCC3=O)cc2NC(=O)c2ccc(F)cn2)CC1 = 100 to 1000 nM
• Cc1ccccc1N1CCN(c2ccc(C(=O)NCCCN3CCCC3=O)cc2NC(=O)c2ccccc2Cl)CC1 = 1000 to 10000 nM

# return EC50 of Cc1ccccc1N1CCN(c2ccc(C(=O)NCCCN3CCCC3=O)cc2NC(=O)c2cscn2)CC1 (system: FSHR (Homo sapiens, UniProt P23945))
100 to 1000 nM

For FSHR (Homo sapiens, UniProt P23945), give EC50 of the listed compound: Cc1ccccc1N1CCN(c2ccc(C(=O)NCCCN3C(=O)CN(C)C3=O)cc2NC(=O)c2ccco2)CC1
100 to 1000 nM

###

As shown below, each of these compounds has a reported pEC50 value.
SYSTEM_UNDER_TEST: follicle-stimulating hormone (FSH) receptor (Rattus norvegicus, UniProt P20395)
Construct: endogenous in cells; host or cells: rat granulosa cells
METHOD: Rat granulosa EC50 FSH (Assay B)
Format: cell-based
TEST_PARAMETERS: rat granulosa cells; Table 2
pEC50: −log10 of the molar value.

// below: answered compounds
- Cc1ccccc1N1CCN(c2ccc(C(=O)N[C@H]3O[C@@H](CO)[C@H](O)[C@@H]3O)cc2NC(=O)c2coc(C3CC3)n2)CC1: 6.00 to 7.00
- Cc1ccnc(N2CCN(c3ccc(C(=O)NCCCN4CCCC4=O)cc3NC(=O)c3coc(C4CC4)n3)CC2)c1: 5.00 to 6.00
- COc1ccnc(N2CCN(c3ccc(C(=O)NCCCN4CCCC4=O)cc3NC(=O)c3coc(C4CC4)n3)CC2)n1: 5.00 to 6.00

Note pEC50 for the compound shown: Cc1ccccc1N1CCN(c2ccc(C(=O)NCCS(=O)(=O)N3CCCC3)cc2NC(=O)c2coc(C3CC3)n2)CC1
6.00 to 7.00

Tell me pEC50 reported for Cc1ncc(C(=O)Nc2cc(C(=O)NCCCN3CCCC3=O)ccc2N2CCN(c3ccccc3C)CC2)o1
5.00 to 6.00

Look up pEC50 of Cc1ccccc1N1CCN(c2ccc(C(=O)NCc3cccc(CN(C)C)c3)cc2NC(=O)c2ccco2)CC1 and report it.
6.00 to 7.00

Specify measured pEC50 for Cc1ccccc1N1CCN(c2ccc(C(=O)NCCCN3C(=O)[C@H]4C[C@@H]3C(O)C4O)cc2NC(=O)c2coc(C3CC3)n2)CC1 (some centres unmarked) .
> 7.00

Return value of pEC50 for input Cc1ccc(CNc2cc(C(=O)NCCCN3CCCC3=O)ccc2N2CCN(c3ccccc3C)CC2)o1 , no commentary.
5.00 to 6.00
